pIC50: −log10 of the molar value.
pIC50 values for UniProt P34947 compiled from several publications are listed below.

Cc1[nH]c(/C=C2\C(=O)Nc3ccc(C(=O)N[C@@H]4CCc5ccccc54)cc32)c(C)c1NC(=O)C(=O)c1ccco1	< 5.00

Give recorded pIC50 with UniProt P34947 for the following compound: CC[C@@H](NC(=O)c1ccc2c(c1)/C(=C/c1[nH]c(C)c(C(=O)N3CCC[C@H]3CN3CCCC3)c1C)C(=O)N2)c1ccccc1
> 7.00

Give recorded pIC50 with UniProt P34947 for the following compound: O=C(NCCc1ccccn1)c1cc([C@@H]2CCNC[C@H]2COc2ccc3c(c2)OCO3)ccc1F
< 4.00

Give recorded pIC50 with UniProt P34947 for the following compound: COc1cccc2[nH]c(C(O)C(=O)Nc3c(C)[nH]c(/C=C4\C(=O)Nc5ccc(C(=O)N[C@H](C)c6ccc(F)cc6)cc54)c3C)cc12 (stereo partly drawn)
6.00 to 7.00

Give recorded pIC50 with UniProt P34947 for the following compound: Cc1[nH]c(/C=C2\C(=O)Nc3ccc(C(=O)N[C@H](C)c4ccccc4)cc32)c(C)c1C(=O)NC1CCS(=O)(=O)CC1
6.00 to 7.00

Give recorded pIC50 with UniProt P34947 for the following compound: C[C@@H](c1ccccc1)N(C)C(=O)c1ccc2c(c1)/C(=C/Nc1ccc(CN3CCCCC3)cc1)C(=O)N2
5.00 to 5.70
